Biological target: Adenosine receptor A3 (Homo sapiens, UniProt P0DMS8)
Sequence (P0DMS8 whole entry): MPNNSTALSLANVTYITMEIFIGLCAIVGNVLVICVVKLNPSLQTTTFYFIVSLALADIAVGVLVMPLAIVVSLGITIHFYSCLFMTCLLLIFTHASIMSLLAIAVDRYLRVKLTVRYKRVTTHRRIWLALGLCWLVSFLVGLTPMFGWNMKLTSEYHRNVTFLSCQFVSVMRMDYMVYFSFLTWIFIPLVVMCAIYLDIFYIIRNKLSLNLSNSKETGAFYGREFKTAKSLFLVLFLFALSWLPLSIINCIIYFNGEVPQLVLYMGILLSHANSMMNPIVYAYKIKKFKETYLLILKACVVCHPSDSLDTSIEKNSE
observable: Ki (nM)
Answers are plain numbers, in nM.

Below: 2 compounds and their reported Ki.
CC(=O)Nc1cc(-c2ccccc2)cc(-c2ccccc2)n1    98.5
CC(=O)Nc1cc(-c2ccc3c(c2)OCO3)cc(-c2ccc3c(c2)OCO3)n1    2.8

Could you now consider this next compound?
Entry COc1cc(-c2cc(NC(C)=O)nc(-c3cc(OC)c(OC)c(OC)c3)c2)cc(OC)c1OC has what Ki?
116

* * *

Assignment: determine reported inhibition for the given molecules.
Target: UniProtKB P29275
Sequence (P29275 whole entry): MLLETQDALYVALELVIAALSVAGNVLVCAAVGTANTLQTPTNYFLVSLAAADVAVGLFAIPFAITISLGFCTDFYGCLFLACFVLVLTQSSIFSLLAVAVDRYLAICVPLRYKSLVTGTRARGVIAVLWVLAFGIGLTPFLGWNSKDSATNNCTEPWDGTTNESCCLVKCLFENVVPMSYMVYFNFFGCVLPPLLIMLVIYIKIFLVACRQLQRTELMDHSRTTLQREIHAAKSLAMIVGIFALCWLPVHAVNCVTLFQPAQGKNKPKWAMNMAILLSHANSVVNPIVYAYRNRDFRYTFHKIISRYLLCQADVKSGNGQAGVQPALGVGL
Test: Displacement of [3H]DPCPX from human adenosine A2B receptor expressed in HEK293 cell membranes at 1 uM after 30 mins relative to control
Numbers only, in %.

Below: 3 molecules and their reported inhibition.
CC(=O)Nc1cc(-c2ccc3c(c2)OCO3)cc(-c2ccc3c(c2)OCO3)n1    27
COc1ccc(OC)c(-c2cc(NC(C)=O)nc(-c3cc(OC)ccc3OC)c2)c1    1
COc1ccccc1-c1cc(NC(C)=O)nc(-c2ccccc2OC)c1    19

Entry COc1cc(-c2cc(NC(C)=O)nc(-c3cc(OC)c(OC)c(OC)c3)c2)cc(OC)c1OC has what inhibition?
4
